Hey, just so you know, these numbers are from patent US11413264B2.

Please respond with reported inhibition at 10 µM for every item in the list.
target.or.system: alpha2C adrenergic receptor (Alpha2C) (Homo sapiens, UniProt P18825)
Construct: expressed in transfected cells; host or cells: CHO cells (membrane fractions)
Sequence (P18825 whole entry): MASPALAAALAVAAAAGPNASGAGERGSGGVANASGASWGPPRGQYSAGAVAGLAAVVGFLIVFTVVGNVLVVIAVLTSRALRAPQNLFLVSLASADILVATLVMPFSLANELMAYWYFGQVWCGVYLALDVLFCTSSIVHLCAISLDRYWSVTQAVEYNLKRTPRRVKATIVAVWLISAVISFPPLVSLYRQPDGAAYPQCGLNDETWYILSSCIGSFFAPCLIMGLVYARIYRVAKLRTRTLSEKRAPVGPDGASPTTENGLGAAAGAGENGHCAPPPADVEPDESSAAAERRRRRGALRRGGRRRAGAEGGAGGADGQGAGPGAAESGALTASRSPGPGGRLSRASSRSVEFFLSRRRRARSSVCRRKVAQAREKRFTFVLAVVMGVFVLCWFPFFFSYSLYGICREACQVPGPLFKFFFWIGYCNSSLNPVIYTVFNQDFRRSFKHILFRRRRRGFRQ
assay.notes: Competitive radioligand binding assay, α2C (antagonist radioligand)
condition.parameters: compound at 10 μM, mean, read-out: % inhibition of control specific binding, Mean
Where a name gives a salt, the structure may show the parent alone.
Use % as the unit, but write only the number.

QUERY: Which inhibition at 10 µM is reported for this molecule? NC(=O)CC[C@H](N)Cc1ccccc1 [Compound 4, hydrochloride]
RESULT: 2.9

QUERY: Which inhibition at 10 µM is reported for this molecule? N[C@@H](COS(N)(=O)=O)Cc1ccccc1 [Compound 9, hydrochloride]
RESULT: 63.4

QUERY: Which inhibition at 10 µM is reported for this molecule? NC(=O)OC[C@H](N)Cc1ccccc1 [APC, (R)-2-amino-3-phenylpropyl carbamate, reference compound]
RESULT: 3.2

QUERY: Which inhibition at 10 µM is reported for this molecule? NC(=O)NC[C@H](N)Cc1ccccc1 [Compound 3, hydrochloride]
RESULT: 15.6

QUERY: Which inhibition at 10 µM is reported for this molecule? NC(=O)SC[C@H](N)Cc1ccccc1 [Compound 10, hydrochloride]
RESULT: 90.9

QUERY: Which inhibition at 10 µM is reported for this molecule? NC(=S)OC[C@H](N)Cc1ccccc1 [Compound 8, dihydrochloride]
RESULT: 48.8

###

Please respond with reported inhibition at 10 µM for every item in the list.
target.or.system: alpha2C adrenergic receptor (Alpha2C) (Homo sapiens, UniProt P18825)
Construct: expressed in transfected cells; host or cells: CHO cells (membrane fractions)
assay.notes: Competitive radioligand binding assay, α2C (antagonist radioligand)
condition.parameters: compound at 10 μM, 2nd individual result, read-out: % inhibition of control specific binding, 2nd
Description: Compounds of the invention were tested for pharmacological activity in comparison to APC. Eight binding assays were carried out to provide a binding profile for each compound, including binding to dopamine transporter (DAT), norepinephrine transporter (NET), serotonin (5-HT) transporter (SERT), alpha2A adrenergic receptor (Alpha2A), alpha2C adrenergic receptor (Alpha2C), D2S dopamine receptor (D2S), D2L dopamine receptor (D2L), and vesicular monoamine transporter (VMAT2). […]
Where a name gives a salt, the structure may show the parent alone.
Use % as the unit, but write only the number.

QUERY: Which inhibition at 10 µM is reported for this molecule? NC(=O)SC[C@H](N)Cc1ccccc1 [Compound 10, hydrochloride]
RESULT: 92.4

QUERY: Which inhibition at 10 µM is reported for this molecule? NC(=O)NC[C@H](N)Cc1ccccc1 [Compound 3, hydrochloride]
RESULT: 22.6

QUERY: Which inhibition at 10 µM is reported for this molecule? NC(=S)OC[C@H](N)Cc1ccccc1 [Compound 8, dihydrochloride]
RESULT: 47

QUERY: Which inhibition at 10 µM is reported for this molecule? NC(=O)OC[C@H](N)Cc1ccccc1 [APC, (R)-2-amino-3-phenylpropyl carbamate, reference compound]
RESULT: 2.3

QUERY: Which inhibition at 10 µM is reported for this molecule? NC(=O)CC[C@H](N)Cc1ccccc1 [Compound 4, hydrochloride]
RESULT: 2.3

QUERY: Which inhibition at 10 µM is reported for this molecule? N[C@@H](COS(N)(=O)=O)Cc1ccccc1 [Compound 9, hydrochloride]
RESULT: 60.9
